Origin of measurements: a melting point compilation (Tetko et al.; mined from patent text by program, amines drawn as free bases though some values may be those of a salt)

The reader will find reported melting point values listed item by item below.

{"compound": "O=C1CC(=O)C2C3C=CC(CC3)C12 (stereo unspecified)", "melting point": "264 °C"}
{"compound": "CCOP(=O)(O)C(=Nc1ccc(-c2c[nH]cn2)cc1)NCCSC", "melting point": "240 to 241 °C"}
{"compound": "CCCc1nc2c(N)nc3ccccc3c2n1OC", "melting point": "210 to 211 °C"}
{"compound": "Nc1nc2ccccc2c2c1ncn2CCOCCCc1ncccn1", "melting point": "126 to 127 °C"}
{"compound": "CCOC(=O)CNC(=O)Oc1c(Cl)cc(Cl)c2cccnc12", "melting point": "120 °C"}
{"compound": "CNC(=O)ON=CC=NOC(C)=O", "melting point": "138 °C"}

====

# key: entry, value: melting point
measurementLabel: melting point

{"molecule": "CC(=O)c1csc(C(=O)C2C(=O)N(C(N)=O)c3ccc(Cl)cc32)c1 (stereo unspecified)", "measurementLabel": "melting point", "result": "230 to 233 °C"}
{"molecule": "CN=C(SC)N(C)Cc1cc(C)nc(C)c1", "measurementLabel": "melting point", "result": "131 to 133 °C"}
{"molecule": "CNc1nc(N=[N+]=[N-])ncc1C#N", "measurementLabel": "melting point", "result": "225 to 230 °C"}
{"molecule": "O=C(O)c1ccc(OCC2CN(c3ccc([N+](=O)[O-])cc3)C(=O)O2)cc1 (stereo unspecified)", "measurementLabel": "melting point", "result": "236 to 238 °C"}
{"molecule": "CC(C)CSc1ccc(N)c([N+](=O)[O-])c1", "measurementLabel": "melting point", "result": "56.5 to 58.5 °C"}
{"molecule": "Cc1sc2c(Br)c3ccccc3c(-c3ccc(OS(=O)(=O)c4scc(C(=O)O)c4O)c(C4CCCC4)c3)c2c1C", "measurementLabel": "melting point", "result": "> 230 °C"}

====

melting point for assorted compounds

{"compound": "CC1(C)Oc2ccc(C#Cc3ccccc3)cc2[C@@H](N)[C@@H]1O (relative stereo)", "melting point": "162 to 164 °C"}
{"compound": "COc1cc(N)c(Cl)cc1C(=O)NC1CNCCn2c1nc(-c1ccncn1)cc2=O (configuration not stated)", "melting point": "277 to 279 °C"}
{"compound": "CC(=O)OCC1OC(N(CCCl)P(=O)(O)NCCCl)C(OC(C)=O)C(OC(C)=O)C1OC(C)=O (configuration not stated)", "melting point": "91 °C"}
{"compound": "O=C(O)C1CCCCC1(O)C(=O)c1ccccc1 (configuration not stated)", "melting point": "165 to 167 °C"}
{"compound": "Cc1ccc(S(=O)(=O)NCCCCOc2ccc(C#N)cc2)cc1", "melting point": "107 to 108 °C"}
{"compound": "C=CCOc1ccc(-c2cc(=O)c3c(O)cc(OCOC)cc3o2)cc1", "melting point": "100 to 101 °C"}
{"compound": "COc1cc(OC)nc(NC(=O)NS(=O)(=O)c2ccccc2CCCl)n1", "melting point": "169 to 171 °C"}
{"compound": "O=C(O)CCCCCCCCCCCNC(=O)OCc1ccccc1", "melting point": "84 to 85 °C"}
{"compound": "O=c1[nH][nH]c(C(F)(F)F)c1Cc1ccc2nccnc2c1", "melting point": "266 to 268 °C"}
{"compound": "Cc1cc(C=O)cc(Oc2nc(OCc3ccccc3)nc(OCc3ccccc3)c2C(C)C)c1", "melting point": "171 to 172 °C"}
{"compound": "O=c1[nH]c(NCCCOc2cccc(CN3CCCCC3)c2)ncc1CCCc1ccccc1", "melting point": "104 to 108 °C"}
{"compound": "CC(C)COc1ccc2c(c1)CCC1C2=CCC2(C)C(=O)CCC12 (configuration not stated)", "melting point": "107 to 108 °C"}

====

melting point overview

{"compound": "O=c1c2c(Cc3ccc(F)cc3)n[nH]c2c2cccnc2n1-c1ccccc1", "melting point": "271 to 274 °C"}
{"compound": "COc1c(NC2CCC(=Cc3ccccc3)CC2)ccnc1C (stereo unspecified)", "melting point": "120 °C"}
{"compound": "Cc1cc(Cl)cc(C(=O)NCC(C)O)c1NC(=O)c1cc(C(F)(F)F)nn1-c1ncccc1Cl (stereo unspecified)", "melting point": "193 to 197 °C"}
{"compound": "COc1ccc(-c2noc(C(F)F)c2-c2ccc(S(N)(=O)=O)cc2)cc1", "melting point": "182 to 183 °C"}
{"compound": "COc1cccc(CNc2nccc(-c3cc(N4CCN(CCCN5CCC5)CC4)c4cc(OC)ccc4c3)n2)c1", "melting point": "122 to 130 °C"}
{"compound": "CCOc1cc(C(=O)c2ccccn2)ccc1OCCO", "melting point": "140 to 141 °C"}

====

The following compounds are shown together with reported melting point values.
measurementLabel: melting point

{"compound": "COC(=O)c1ccc(-c2ccccc2)cc1S(=O)(=O)NC(=O)Nc1nc(C)nc(OC)n1", "result": "198 to 200 °C"}
{"compound": "O=S(=O)(c1ccc(N2CCCCCC2)cc1)N1CC(O)CC1=S (configuration not stated)", "result": "138 to 139 °C"}
{"compound": "CCOC(=O)c1cc(Cl)n2nc(-c3ccccc3)cc2n1", "result": "135 to 137 °C"}
{"compound": "CCCc1cc(Cl)c2oc(Cc3ccccc3)c(C)c2c1O", "result": "69 to 70 °C"}
{"compound": "C=CCOc1ccc(Br)cc1C(C)=NO", "result": "110 to 111 °C"}
{"compound": "NS(=O)(=O)c1ccc(-n2nc(C(F)(F)F)cc2-c2nc3ccc(F)cc3s2)cc1", "result": "260 to 261 °C"}
{"compound": "Cn1c2cc(Cl)ncc2c(=O)n2nccc12", "result": "> 300 °C"}
{"compound": "CSC[C@H](NC(=O)C(C)(C)SC)C(=O)O", "result": "120 to 121 °C"}
{"compound": "COc1ccc(C=C2SC(=S)N(CC(=O)O)C2=O)cc1", "result": "250 to 253 °C"}
{"compound": "CCCCCCCCCCCCCCCNC(=O)OCCOCCOC(=O)N(Cc1ccccn1)C(C)=O", "result": "53 to 55 °C"}
{"compound": "COc1ccc2c(c1)CCC1C2CCC2(C)C(=NN(C)C)CCC12 (configuration not stated)", "result": "98 to 100 °C"}
{"compound": "O=C(CCc1ccc(Cl)cc1)Cn1ccnc1", "result": "172 to 174 °C"}
{"compound": "COc1cc2c(c(OC)c1OC)CC(N1CCC(n3c(=O)[nH]c4ccccc43)CC1)C2=O (configuration not stated)", "result": "197 to 199 °C"}
{"compound": "CCC(CC)c1nn(-c2ccc(Cl)cn2)cc1CCCOc1c(CC(=O)O)cccc1OC", "result": "85 to 86 °C"}
{"compound": "CC1=C(C(=O)N[C@H](C)c2ccccc2)[C@H](c2ccc(F)cc2Cl)N=C(c2nccs2)N1", "result": "224 to 226 °C"}
{"compound": "CC(=O)c1cccc([N+](=O)[O-])c1Cl", "result": "41 to 43 °C"}
{"compound": "O=C(O)c1cc(CC(C(=O)O)C(=O)O)c2ccccn2c1=O", "result": "> 250 °C"}
{"compound": "Cc1c(CO)sc2c(Br)cccc12", "result": "129 to 130 °C"}
{"compound": "CCOP(=O)(NCc1cccc(-c2nc(=O)c3ccccc3s2)n1)OCC", "result": "135 to 136 °C"}
{"compound": "CCOC(=O)CCCCOc1ccc2c(c1)CC1CC(=O)NC1=N2 (configuration not stated)", "result": "180 °C"}
{"compound": "COc1cc(CN2CCN(C(=S)C3(C)CCc4c(C)c(O)c(C)c(C)c4O3)CC2)cc(OC)c1OC (configuration not stated)", "result": "82 °C"}
{"compound": "C=CCOc1ccc(C[C@H](N)C(=O)NC(=O)OC(C)(C)C)cc1", "result": "145 °C"}
{"compound": "CCCCCCCCCCCCCCOc1ccccc1O", "result": "53 to 54 °C"}
{"compound": "CCCCCC=Cc1cccc2c(=O)[nH]c(-c3cc(S(=O)(=O)N4CCOCC4)ccc3OCCC)nc12", "result": "112 °C"}
{"compound": "N#Cc1[nH]c(Br)c([N+](=O)[O-])c1Br", "result": "170 to 175 °C"}
{"compound": "COc1ccc(-c2c(Cl)c(CN3C(=O)CCC3=O)nc3sc4c(c23)CC/C(=N/O)C4)cc1", "result": "248 to 249 °C"}
{"compound": "COc1cc(OC)c(C(=O)C=Cc2ccc(C)cc2)c(OP(=O)(O)O)c1", "result": "81 to 83 °C"}
